experimental-details: Tmax in Sprague-Dawley rat at 100 mg/kg, ip and measured upto 8 hrs by LC-MS/MS analysis
Format: ADME, organism-based
conditions: in vivo

smiles-record	unit	Tmax
Cc1c(Cl)cccc1Nc1ccc(F)cc1C(=O)NCc1ccc(O)c(O)c1	min	40.2

---

Test system: CT26.WT
experimental-details: Antiproliferative activity against mouse CT26.WT cells assessed as reduction in cell proliferation incubated for 48 hrs by MTT assay
Type: functional, cell-based
Recorded IC50 for the following compounds
quantity-name: IC50

compound	quantity-name	reported-value
OCc1ccc(O)cc1 [PARAHYDROXYBENZYL ALCOHOL]	IC50	> 100 µM
Cc1c(Cl)cccc1N(C)c1ccccc1C(=O)NCc1ccc(O)c(F)c1	IC50	> 100 µM
COc1ccc(NC(=O)c2ccccc2Nc2cccc(Cl)c2C)cc1	IC50	11 µM
Cc1cccc(Nc2ccccc2C(=O)NCc2ccc(O)cc2)c1C	IC50	> 100 µM
Cc1c(Cl)cccc1Nc1ccccc1C(=O)NCc1ccc(O)c(O)c1	IC50	9.64 µM
O=C(NCc1ccc(O)cc1)c1ccccc1Nc1ccccc1	IC50	> 100 µM
Cc1c(Cl)cccc1Nc1ccccc1C(=O)NCc1ccc(O)c(F)c1	IC50	11.6 µM
Cc1c(Cl)cccc1Nc1ccc(F)cc1C(=O)NCc1ccc(O)c(O)c1	IC50	3.04 µM
Cc1c(Cl)cccc1Oc1ccccc1C(=O)NCc1ccc(O)cc1	IC50	36.8 µM
Cc1c(Cl)cccc1Nc1ccccc1C(=O)NCc1ccc(F)cc1	IC50	> 100 µM
Cc1c(Cl)cccc1Nc1ccccc1C(=O)NCc1ccc(O)cc1	IC50	10.5 µM
Cc1c(Cl)cccc1Nc1ccc(F)cc1C(=O)NCc1ccc(O)c(F)c1	IC50	8.88 µM
Cc1c(Cl)cccc1Nc1ccccc1C(=O)NCc1cccc2c1OCO2	IC50	> 100 µM
O=C(Nc1ccc(O)cc1)c1ccccc1Nc1ccccc1	IC50	52.8 µM
